Assay: RAM signaling pathway blockade in yeast – S. cerevisiae, Pdr1DBD-CYC8 efflux-inhibited sensitized strain, primary screen (AID 1298);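 further: 0% = DMSO untreated cells without growth and 100% = 10 µM 1-NA-PP1 full growth; higher means more yeast growth rescued from 5-FOA killing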
Settings: S. cerevisiae cbk1-as DSE1-URA3 strain, 5-FOA growth OD615, 2 d; at 50 µM; active compounds read high
Each entry below carries its reported RAM network inhibition.
Your answer should be a plain number; it is taken to be in %.

Solved cases (4 shown):
COMPOUND	RECORDED_RESULT
Cc1occc1-c1nnc(SCCCC(=O)c2ccc(F)cc2)n1C	6.28
CCOC(=O)N1CCN(C(=O)CSc2nc3c(cnn3-c3ccccc3)c(=O)[nH]2)CC1	-1.2
O=C1CN(C(=O)CN2CCOCC2)C(c2ccccc2)c2cc(Br)ccc2N1 (stereo not given)	1.01
Cc1ccc(Cl)cc1N1CCN(C(=O)CCC(=O)O)CC1	2.18

Entry under review: CCCCOC(=O)Nc1sc2c(c1C(=O)OC)CCC2 . Reported RAM network inhibition?
8.11

Quick one: RAM network inhibition of Cn1c(C(=O)NCCN2CCN(Cc3ccccc3)CC2)cc2c(=O)n(C)c3ccccc3c21 ?
2.19

Reference source for all entries: PubChem BioAssay
